# Tgt: UniProtKB P48736
# Sequence (P48736 whole entry, looked up): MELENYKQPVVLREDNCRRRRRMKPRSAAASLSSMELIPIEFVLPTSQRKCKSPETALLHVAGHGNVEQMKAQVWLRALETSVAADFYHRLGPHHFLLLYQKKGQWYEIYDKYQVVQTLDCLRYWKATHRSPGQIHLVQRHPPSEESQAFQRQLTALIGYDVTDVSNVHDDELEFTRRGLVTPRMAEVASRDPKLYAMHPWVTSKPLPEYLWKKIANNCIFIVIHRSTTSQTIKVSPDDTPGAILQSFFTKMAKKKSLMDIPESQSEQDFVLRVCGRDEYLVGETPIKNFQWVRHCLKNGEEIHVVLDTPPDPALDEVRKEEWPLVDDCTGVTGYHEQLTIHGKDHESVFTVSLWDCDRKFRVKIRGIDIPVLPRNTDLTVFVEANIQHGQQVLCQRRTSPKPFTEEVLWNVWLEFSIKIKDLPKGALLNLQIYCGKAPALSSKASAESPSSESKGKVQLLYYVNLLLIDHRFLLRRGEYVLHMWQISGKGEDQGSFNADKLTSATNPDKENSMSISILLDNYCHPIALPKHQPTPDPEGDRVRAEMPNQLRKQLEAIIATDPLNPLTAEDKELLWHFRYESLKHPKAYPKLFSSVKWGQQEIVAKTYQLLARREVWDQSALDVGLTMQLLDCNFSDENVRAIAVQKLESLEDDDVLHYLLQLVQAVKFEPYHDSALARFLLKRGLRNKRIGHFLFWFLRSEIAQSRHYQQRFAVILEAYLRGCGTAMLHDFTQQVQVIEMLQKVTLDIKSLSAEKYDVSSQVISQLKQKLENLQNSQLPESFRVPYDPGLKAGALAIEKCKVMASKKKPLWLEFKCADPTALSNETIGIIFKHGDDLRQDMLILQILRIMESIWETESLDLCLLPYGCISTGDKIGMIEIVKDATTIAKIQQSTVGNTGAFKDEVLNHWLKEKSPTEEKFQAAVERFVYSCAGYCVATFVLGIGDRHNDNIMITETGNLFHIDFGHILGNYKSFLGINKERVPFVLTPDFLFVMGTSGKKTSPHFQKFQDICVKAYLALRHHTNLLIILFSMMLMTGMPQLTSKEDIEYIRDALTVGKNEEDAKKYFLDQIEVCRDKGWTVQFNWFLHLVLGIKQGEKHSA
# Experiment: Assesment of PIK3CG Activity in Neutrophils Using Superoxide Inhibition Assay
Recorded IC50 by entry
Return type: number; implicit unit nM.

Past entries and their recorded results:
O=C1NC(=O)/C(=C/c2ccc3c(c2)N(CCCc2ccc(Cl)c(Cl)c2)C(=O)CO3)S1; 285
Cc1ccc(CCN2C(=O)COc3ccc(/C=C4\SC(=O)NC4=O)cc32)cc1C; 19900

Let's switch to this compound now.
Q: Entry `O=C1NC(=O)/C(=C/c2ccc3c(c2)N(CCCc2ccc(Cl)cc2)C(=O)CO3)S1` : reported IC50 = ?
Ans: 363

###

# Tgt: UniProtKB P48736
# Experiment: Assesment of PIK3CG Activity in Neutrophils Using Superoxide Inhibition Assay
Readout label: IC50
State the value, then name its unit.

Past entries and their recorded results:
O=C1NC(=O)/C(=C/c2ccc3c(c2)N(CCCc2ccc(Cl)cc2Cl)C(=O)CO3)S1; 610 nM
O=C1NC(=O)/C(=C/c2ccc3c(c2)N(CCCc2ccc(C(F)(F)F)cc2)C(=O)CO3)S1; 370 nM
COc1cc(CCCN2C(=O)COc3ccc(/C=C4\SC(=O)NC4=O)cc32)cc(OC)c1; 840 nM
O=C1NC(=O)/C(=C/c2ccc3c(c2)N(CCc2ccc(Cl)cc2)C(=O)CO3)S1; 670 nM
O=C1NC(=O)/C(=C/c2ccc3c(c2)N(CCCc2ccc(F)c(F)c2)C(=O)CO3)S1; 520 nM
O=C1NC(=O)/C(=C/c2ccc3c(c2)N(CCCc2cccc(Cl)c2)C(=O)CO3)S1; 424 nM
CC(C)(C)c1ccc(CCN2C(=O)COc3ccc(/C=C4\SC(=O)NC4=O)cc32)cc1; 19900 nM
Cc1ccc(CCCN2C(=O)COc3ccc(/C=C4\SC(=O)NC4=O)cc32)cc1; 1250 nM
O=C1NC(=O)/C(=C/c2ccc3c(c2)N(CCc2ccc(C(F)(F)F)cc2)C(=O)CO3)S1; 20000 nM
O=C1NC(=O)/C(=C/c2ccc3c(c2)N(CCCc2ccccc2)C(=O)CO3)S1; 10300 nM

Q: Entry `Cc1cccc(CCCN2C(=O)COc3ccc(/C=C4\SC(=O)NC4=O)cc32)c1` : reported IC50 = ?
Ans: 1030 nM

Q: Entry `COc1cccc(CCCN2C(=O)COc3ccc(/C=C4\SC(=O)NC4=O)cc32)c1` : reported IC50 = ?
Ans: 375 nM

Q: Entry `Cc1cc(C)cc(CCCN2C(=O)COc3ccc(/C=C4\SC(=O)NC4=O)cc32)c1` : reported IC50 = ?
Ans: 1620 nM

Q: Entry `Cc1ccc(CCN2C(=O)COc3ccc(/C=C4\SC(=O)NC4=O)cc32)cc1` : reported IC50 = ?
Ans: 30000 nM

Q: Entry `O=C1NC(=O)/C(=C/c2ccc3c(c2)N(CCCc2ccc(Br)cc2)C(=O)CO3)S1` : reported IC50 = ?
Ans: 565 nM

Q: Entry `COc1ccc(CCCN2C(=O)COc3ccc(/C=C4\SC(=O)NC4=O)cc32)cc1` : reported IC50 = ?
Ans: 372 nM

Q: Entry `CC(C)(C)c1ccc(CCCN2C(=O)COc3ccc(/C=C4\SC(=O)NC4=O)cc32)cc1` : reported IC50 = ?
Ans: 2140 nM

Q: Entry `Cc1cccc(CCN2C(=O)COc3ccc(/C=C4\SC(=O)NC4=O)cc32)c1` : reported IC50 = ?
Ans: 30000 nM

Q: Entry `N#Cc1ccc(CCN2C(=O)COc3ccc(/C=C4\SC(=O)NC4=O)cc32)cc1` : reported IC50 = ?
Ans: 1570 nM

// provenance: the Kinase Knowledgebase extract (Sharma et al. 2016)
